- assay: Volume of distribution in monkey at 5 mg/kg, iv and 10 mg/kg, po
- Format: ADME, organism-based, Macaca mulatta
- conditionInfo: rhesus monkey, in vivo
observedProperty: Vd (L/kg)

>>> recordednumber("CC(C)[C@H](NC(=O)CCN(C)C)c1cccc(F)c1N1CCN(C(=O)[C@H](C)Cc2ccc(Cl)cc2)CC1")
5.6

----------
- assay: Ratio of Cmax in brain to plasma in rat at 10 mg/kg, po after 1 hr
- Type: ADME, organism-based
- Parameters: dose 10 mg/kg, route oral
- conditionInfo: brain and plasma
observedProperty: Kp at 1 h

>>> recordednumber("CC(C)[C@H](NC(=O)CCN(C)C)c1cccc(F)c1N1CCN(C(=O)[C@H](C)Cc2ccc(Cl)cc2)CC1")
0.05

----------
- assay: Cmax in monkey at 5 mg/kg, iv and 10 mg/kg, po
- Assay type: ADME, organism-based, Macaca mulatta
- conditionInfo: rhesus monkey, in vivo
observedProperty: Cmax (ng/mL)

>>> recordednumber("CC(C)[C@H](NC(=O)CCN(C)C)c1cccc(F)c1N1CCN(C(=O)[C@H](C)Cc2ccc(Cl)cc2)CC1")
200

----------
- assay: Ratio of drug level in brain to plasma in mouse at 10 mg/kg, po after 1 hr
- Type: ADME, organism-based
- Design: dose 10 mg/kg, route oral
- conditionInfo: brain and plasma
observedProperty: Kp at 1 h

>>> recordednumber("Cc1ccc(N2CCN(C(=O)[C@H](C)Cc3ccc(Cl)cc3)CC2)c([C@@H](NC(=O)CCN(C)C)C(C)C)c1")
0.1

----------
- assay: Dissociation constant, pKa of the compound
- Type: physicochemical
observedProperty: pKa

>>> recordednumber("Cc1ccc(N2CCN(C(=O)[C@H](C)Cc3ccc(Cl)cc3)CC2)c([C@@H](NC(=O)CCN(C)C)C(C)C)c1")
8.9

----------
- assay: AUC in dog at 10 mg/kg, po
- Format: ADME, organism-based, Canis lupus familiaris
- Design: dose 10 mg/kg, route oral
- conditionInfo: plasma
observedProperty: AUC (ng·h/mL)

>>> recordednumber("CC(C)[C@H](NC(=O)CCN(C)C)c1cccc(F)c1N1CCN(C(=O)[C@H](C)Cc2ccc(Cl)cc2)CC1")
3850

----------
- assay: Cmax in rat at 5 mg/kg, iv and 10 mg/kg, po
- Assay type: ADME, organism-based
- conditionInfo: in vivo
observedProperty: Cmax (ng/mL)

>>> recordednumber("CC(C)[C@H](NC(=O)CCN(C)C)c1cccc(F)c1N1CCN(C(=O)[C@H](C)Cc2ccc(Cl)cc2)CC1")
195

----------
- assay: Oral bioavailability in rat at 10 mg/kg
- Assay type: ADME, organism-based
- conditionInfo: in vivo
observedProperty: bioavailability (%)

>>> recordednumber("CC(C)[C@H](NC(=O)CCN(C)C)c1cccc(F)c1N1CCN(C(=O)[C@H](C)Cc2ccc(Cl)cc2)CC1")
31

----------
- assay: Volume of distribution in rat at 5 mg/kg, iv and 10 mg/kg, po
- Assay type: ADME, organism-based
- conditionInfo: in vivo
observedProperty: Vd (L/kg)

>>> recordednumber("CC(C)[C@H](NC(=O)CCN(C)C)c1cccc(F)c1N1CCN(C(=O)[C@H](C)Cc2ccc(Cl)cc2)CC1")
7.7

----------
- assay: Cmax in mouse at 5 mg/kg, iv and 10 mg/kg, po
- Format: ADME, organism-based
- conditionInfo: in vivo
observedProperty: Cmax (ng/mL)

>>> recordednumber("CNCCN[C@H](c1cccc(F)c1N1CCN(C(=O)[C@H](C)Cc2ccc(Cl)cc2)CC1)C(C)C")
166
>>> recordednumber("CC(C)[C@H](NC(=O)C1CN(C)C1)c1cc(Cl)ccc1N1CCN(C(=O)[C@H](C)Cc2ccc(Cl)cc2)CC1")
762
>>> recordednumber("CC(C)[C@H](NC(=O)CCN(C)C)c1cc(Cl)ccc1N1CCN(C(=O)[C@H](C)Cc2ccc(Cl)cc2)CC1")
109
>>> recordednumber("CNCC(=O)N[C@H](c1cccc(F)c1N1CCN(C(=O)[C@H](C)Cc2ccc(Cl)cc2Cl)CC1)C(C)C")
172
>>> recordednumber("CNCC(=O)N[C@H](c1cccc(F)c1N1CCN(C(=O)[C@H](C)Cc2ccc(Cl)cc2OC)CC1)C(C)C")
114
>>> recordednumber("CNCC(=O)N[C@H](c1cccc(F)c1N1CCN(C(=O)[C@H](C)Cc2ccc(Cl)cc2)CC1)C(C)C")
165
>>> recordednumber("COc1cc(Cl)ccc1C[C@@H](C)C(=O)N1CCN(c2ccc(Cl)cc2[C@@H](NC(=O)[C@@H](C)N)C(C)C)CC1")
143
>>> recordednumber("COc1cc(Cl)ccc1C[C@@H](C)C(=O)N1CCN(c2ccc(Cl)cc2[C@@H](NC(=O)C2CNC2)C(C)C)CC1")
151

----------
- assay: Drug level in rat brain at 10 mg/kg, po after 6 hrs
- Format: ADME, organism-based
- Design: dose 10 mg/kg, route oral
- conditionInfo: read-out: Drug uptake
observedProperty: concentration at 6 h

>>> result("Cc1ccc(N2CCN(C(=O)[C@H](C)Cc3ccc(Cl)cc3)CC2)c([C@@H](NC(=O)CCN(C)C)C(C)C)c1")
"41 ng/g"

----------
- assay: Drug level in LLC tumor bearing C57BL/6J mouse brain at 20 mg/kg, po twice daily after 2 hrs on day 1 of administration
- Assay type: ADME, organism-based
- Parameters: dose 20 mg/kg, route oral
observedProperty: concentration at 2 h (ng/g)

>>> recordednumber("Cc1ccc(N2CCN(C(=O)[C@H](C)Cc3ccc(Cl)cc3)CC2)c([C@@H](NC(=O)CCN(C)C)C(C)C)c1")
27

----------
- assay: Ratio of drug level in brain to plasma in mouse at 10 mg/kg, po after 4 hrs
- Assay type: ADME, organism-based
- Set-up: dose 10 mg/kg, route oral
observedProperty: Kp at 4 h

>>> recordednumber("Cc1ccc(N2CCN(C(=O)[C@H](C)Cc3ccc(Cl)cc3)CC2)c([C@@H](NC(=O)CCN(C)C)C(C)C)c1")
0.1

----------
- assay: Drug level in LLC tumor bearing C57BL/6J mouse plasma at 20 mg/kg, po twice daily after 24 hrs on day 4 of administration measured 14 hrs after last dose
- Type: ADME, organism-based
- Set-up: dose 20 mg/kg, route oral
observedProperty: concentration at 14 h (ng/mL)

>>> recordednumber("Cc1ccc(N2CCN(C(=O)[C@H](C)Cc3ccc(Cl)cc3)CC2)c([C@@H](NC(=O)CCN(C)C)C(C)C)c1")
22

----------
- assay: Oral bioavailability in dog at 10 mg/kg
- Type: ADME, organism-based, Canis lupus familiaris
- conditionInfo: in vivo
observedProperty: bioavailability (%)

>>> recordednumber("CC(C)[C@H](NC(=O)CCN(C)C)c1cccc(F)c1N1CCN(C(=O)[C@H](C)Cc2ccc(Cl)cc2)CC1")
37

----------
- assay: Ratio of AUC in brain to plasma in rat at 10 mg/kg, po
- Type: ADME, organism-based
- Set-up: dose 10 mg/kg, route oral
- conditionInfo: brain and plasma
observedProperty: Kp

>>> recordednumber("CC(C)[C@H](NC(=O)CCN(C)C)c1cccc(F)c1N1CCN(C(=O)[C@H](C)Cc2ccc(Cl)cc2)CC1")
0.48

----------
- assay: Drug level in LLC tumor bearing C57BL/6J mouse brain at 20 mg/kg, po twice daily after 24 hrs
- Type: ADME, organism-based
- Set-up: dose 20 mg/kg, route oral
observedProperty: concentration at 24 h (ng/g)

>>> recordednumber("Cc1ccc(N2CCN(C(=O)[C@H](C)Cc3ccc(Cl)cc3)CC2)c([C@@H](NC(=O)CCN(C)C)C(C)C)c1")
11

----------
- assay: physchem
- conditionInfo: buffer, pH 7.4
# logD values compiled below
observedProperty: logD

>>> recordednumber("COc1cc(Cl)ccc1C[C@@H](C)C(=O)N1CCN(c2ccc(Cl)cc2[C@@H](NC(=O)[C@@H](C)N)C(C)C)CC1")
4.5
>>> recordednumber("CC(C)[C@H](NC(=O)CCN(C)C)c1cc(Cl)ccc1N1CCN(C(=O)[C@H](C)Cc2ccc(Cl)cc2)CC1")
4
>>> recordednumber("CC(C)[C@H](NC(=O)C1CN(C)C1)c1cc(Cl)ccc1N1CCN(C(=O)[C@H](C)Cc2ccc(Cl)cc2)CC1")
3
>>> recordednumber("CNCCC(=O)N[C@H](c1cc(C)ccc1N1CCN(C(=O)[C@H](C)Cc2ccc(Cl)cc2)CC1)C(C)C")
2.7

----------
- assay: Cmax in rat brain at 10 mg/kg, po
- Type: ADME, organism-based
- Design: dose 10 mg/kg, route oral
observedProperty: Cmax

>>> result("CC(C)[C@H](NC(=O)CCN(C)C)c1cccc(F)c1N1CCN(C(=O)[C@H](C)Cc2ccc(Cl)cc2)CC1")
"52 ng/g"

----------
- assay: Tmax in mouse at 5 mg/kg, iv and 10 mg/kg, po
- Type: ADME, organism-based
- conditionInfo: in vivo
observedProperty: Tmax (min)

>>> recordednumber("CNCC(=O)N[C@H](c1cccc(F)c1N1CCN(C(=O)[C@H](C)Cc2ccc(Cl)cc2OC)CC1)C(C)C")
30
>>> recordednumber("COc1cc(Cl)ccc1C[C@@H](C)C(=O)N1CCN(c2c(F)cccc2[C@@H](NC(=O)C2CNC2)C(C)C)CC1")
120
>>> recordednumber("CNCC(=O)N[C@H](c1cc(C)ccc1N1CCN(C(=O)[C@H](C)Cc2ccc(Cl)cc2F)CC1)C(C)C")
120
>>> recordednumber("COc1cc(Cl)ccc1C[C@@H](C)C(=O)N1CCN(c2ccc(Cl)cc2[C@@H](NC(=O)C2CNC2)C(C)C)CC1")
120
>>> recordednumber("CNCC(=O)N[C@H](c1cc(Cl)ccc1N1CCN(C(=O)[C@H](C)Cc2ccc(Cl)cc2)CC1)C(C)C")
30
>>> recordednumber("CNCCN[C@H](c1cccc(F)c1N1CCN(C(=O)[C@H](C)Cc2ccc(Cl)cc2)CC1)C(C)C")
30
>>> recordednumber("CNCC(=O)N[C@H](c1cccc(F)c1N1CCN(C(=O)[C@H](C)Cc2ccc(Cl)cc2Cl)CC1)C(C)C")
120
>>> recordednumber("CC(C)[C@H](NC(=O)CCN(C)C)c1cccc(F)c1N1CCN(C(=O)[C@H](C)Cc2ccc(Cl)cc2)CC1")
30
>>> recordednumber("CNCC(=O)N[C@H](c1cc(Cl)ccc1N1CCN(C(=O)[C@H](C)Cc2ccc(Cl)cc2OC)CC1)C(C)C")
30
>>> recordednumber("CC(C)[C@H](NC(=O)CCN(C)C)c1cc(Cl)ccc1N1CCN(C(=O)[C@H](C)Cc2ccc(Cl)cc2)CC1")
60
>>> recordednumber("COc1cc(Cl)ccc1C[C@@H](C)C(=O)N1CCN(c2ccc(Cl)cc2[C@@H](NC(=O)[C@@H](C)N)C(C)C)CC1")
15
>>> recordednumber("CNCC(=O)N[C@H](c1cccc(F)c1N1CCN(C(=O)[C@H](C)Cc2ccc(Cl)cc2)CC1)C(C)C")
30
>>> recordednumber("CC(C)[C@H](NC(=O)C1CN(C)C1)c1cc(Cl)ccc1N1CCN(C(=O)[C@H](C)Cc2ccc(Cl)cc2)CC1")
360
